Where do the numbers come from? From ChEMBL document CHEMBL1157539.

Some molecules, each annotated with its measured Inhibition.
# System: HepG2
# protocol: GSK_TCMDC: Percent inhibition of human HepG2 cell line. Test compounds present at 10uM.
# Assay type: functional
measure name: Inhibition (%)

molecule=CCCC(=O)Nc1ccc(OCCN(Cc2ccccc2OC(F)(F)F)c2ccc(C(F)(F)F)c(C#N)c2)cc1 units_symbol=% quantitative_readout=0
molecule=COc1c(C2CCN(CCCCNC(=O)c3ccc(-c4ccc(C#N)cc4)c(O)c3)CC2)ccc2c1CCCC2.Cl units_symbol=% quantitative_readout=35
molecule=COc1ccc(CN2CCC(NCc3cccc(C(F)(F)F)c3)CC2)cc1.O=C(O)C(F)(F)F units_symbol=% quantitative_readout=6
molecule=CCCCOP(=O)(OCCCC)C(=Cc1ccc(O)c2ccccc12)P(=O)(OCCCC)OCCCC units_symbol=% quantitative_readout=1
molecule=CN(C)CCNC(=O)N1CCCN(c2ncnc3cc(-c4ccc(Cl)cc4)sc23)CC1.O=C(O)C(F)(F)F units_symbol=% quantitative_readout=41
molecule=CN(C)CCOc1cc(NC(=O)Nc2ccc(Cl)cc2C(F)(F)F)ccc1I units_symbol=% quantitative_readout=0
molecule="Cc1ccc(Cn2cnc(N3CC(C)NC(C)C3)cc2=O)cc1NC(=O)Nc1ccc(-c2ccccc2)cc1.O=C(O)C(F)(F)F (stereo not drawn)" units_symbol=% quantitative_readout=18
molecule=COc1ccc2nccc([C@@H](O)CN3CCC(NC(=O)c4cc5cccnc5[nH]4)CC3)c2c1.Cl units_symbol=% quantitative_readout=0

* * *

# Test system: Plasmodium falciparum
# protocol: GSK_TCMDC: Inhibition of Plasmodium falciparum 3D7 in whole red blood cells, using parasite LDH activity as an index of growth. Test compounds present at 2uM
# Assay type: functional
measure name: Inhibition (%)

compound="CN(C)c1ccc(CN2CCC(CNC(=O)c3cc(-c4cccc(F)c4)cs3)C2)cc1.O=C(O)C(F)(F)F (centres undefined)" measure_name=Inhibition units_symbol=% quantitative_readout=96
compound=CCOCCCNc1sc(S(=O)(=O)c2ccccc2)nc1S(=O)(=O)c1ccc(C)cc1 measure_name=Inhibition units_symbol=% quantitative_readout=96
compound=CCc1ccc2nc(-c3ccc(F)cc3)nc(SCC(=O)Nc3sc(C)c(C)c3C#N)c2c1 measure_name=Inhibition units_symbol=% quantitative_readout=98
compound=O=C(O)C(F)(F)F.c1cc(-c2ccc(CN3CCCC3)cc2)cc(-c2nc3ccccc3[nH]2)c1 measure_name=Inhibition units_symbol=% quantitative_readout=100
compound=CCCN(Cc1ccc(C)cc1)Cc1cc(=O)c2cc(Cl)ccc2[nH]1 measure_name=Inhibition units_symbol=% quantitative_readout=86
compound=Cc1cccc2nc(-c3ccc(-c4ccc(CNCc5cccc(N)c5)cc4)cc3)[nH]c12.O=C(O)C(F)(F)F measure_name=Inhibition units_symbol=% quantitative_readout=100
compound=COc1cccc(NC(=O)Nc2c(-c3cccc(C(F)(F)F)c3)c(C(F)(F)F)nn2C)c1 measure_name=Inhibition units_symbol=% quantitative_readout=93
compound=CC(C)C[C@H](Nc1ccnc(NCC2CCCCC2)n1)C(=O)Nc1ccccc1.O=C(O)C(F)(F)F measure_name=Inhibition units_symbol=% quantitative_readout=87
compound=FC(F)(F)c1ccc2[nH]c(-c3ccc(-c4ccc(CN5CCN(c6ccncc6)CC5)cc4)s3)nc2c1.O=C(O)C(F)(F)F measure_name=Inhibition units_symbol=% quantitative_readout=100

* * *

# Tested on: Plasmodium falciparum
# protocol: GSK_TCMDC: Inhibition of Plasmodium falciparum 3D7 in whole red blood cells, using parasite LDH activity as an index of growth. Test compounds present at 2uM
# Format: functional
Some compounds, each annotated with its measured Inhibition.
measure name: Inhibition (%)

compound=COc1cc(C(F)(F)F)nc2c(CNCCCNc3cc(=O)c4ccccc4[nH]3)scc12.Cl assay_system="Plasmodium falciparum" quantitative_readout=92
compound="CC1CN(c2cc(=O)n(Cc3cccc(NC(=O)Nc4ccc(-c5ccccc5)cc4)c3)cn2)CC(C)N1.O=C(O)C(F)(F)F (centres undefined)" assay_system="Plasmodium falciparum" quantitative_readout=100
compound=CC(C)[C@H](NC(=O)c1ccc(O)c(-c2ccc(Cl)c(Cl)c2)c1)C(=O)NCCN1CCCC1 assay_system="Plasmodium falciparum" quantitative_readout=98
compound=CCOc1ccc2[nH]c(C)cc(=NN=Cc3ccccc3F)c2c1 assay_system="Plasmodium falciparum" quantitative_readout=100
compound=CCN(CCN(C)C)Cc1ccc(-c2ccc(NS(=O)(=O)c3cccc4cccnc34)cc2)cc1.O=C(O)C(F)(F)F assay_system="Plasmodium falciparum" quantitative_readout=91
compound="COc1cc(CNCCCNc2cc(=O)c3ccccc3[nH]2)c2c(c1)C(C)CN2C(=O)OC(C)(C)C (centres undefined)" assay_system="Plasmodium falciparum" quantitative_readout=96
compound=Cl.O=c1nc(NCCCNCc2cc3c(Cl)cc(Cl)cc3[nH]2)[nH]c2ccccc12 assay_system="Plasmodium falciparum" quantitative_readout=91
compound=Cc1cccc2nc(-c3cccc(-c4cccc(NC(=O)Nc5ccc(Cl)cc5)c4)c3)[nH]c12 assay_system="Plasmodium falciparum" quantitative_readout=100
compound="O=C(Nc1ccc(Cl)cc1Cl)NC1CCN(CCCCCNC(=O)C2CC2c2ccc(Cl)c(Cl)c2)CC1 (centres undefined)" assay_system="Plasmodium falciparum" quantitative_readout=100
